Target: T1, Human ROBO1 RSK mutant overexpressed on HEK293 cells (human, UniProt Q9Y6N7 26-1651)
T1 construct: K137R and R139K already in the entry; also called ROBO1-RSK cells
T1 sequence (Q9Y6N7 other isoform, or with tags, fused parts or gaps mutant limits assumed): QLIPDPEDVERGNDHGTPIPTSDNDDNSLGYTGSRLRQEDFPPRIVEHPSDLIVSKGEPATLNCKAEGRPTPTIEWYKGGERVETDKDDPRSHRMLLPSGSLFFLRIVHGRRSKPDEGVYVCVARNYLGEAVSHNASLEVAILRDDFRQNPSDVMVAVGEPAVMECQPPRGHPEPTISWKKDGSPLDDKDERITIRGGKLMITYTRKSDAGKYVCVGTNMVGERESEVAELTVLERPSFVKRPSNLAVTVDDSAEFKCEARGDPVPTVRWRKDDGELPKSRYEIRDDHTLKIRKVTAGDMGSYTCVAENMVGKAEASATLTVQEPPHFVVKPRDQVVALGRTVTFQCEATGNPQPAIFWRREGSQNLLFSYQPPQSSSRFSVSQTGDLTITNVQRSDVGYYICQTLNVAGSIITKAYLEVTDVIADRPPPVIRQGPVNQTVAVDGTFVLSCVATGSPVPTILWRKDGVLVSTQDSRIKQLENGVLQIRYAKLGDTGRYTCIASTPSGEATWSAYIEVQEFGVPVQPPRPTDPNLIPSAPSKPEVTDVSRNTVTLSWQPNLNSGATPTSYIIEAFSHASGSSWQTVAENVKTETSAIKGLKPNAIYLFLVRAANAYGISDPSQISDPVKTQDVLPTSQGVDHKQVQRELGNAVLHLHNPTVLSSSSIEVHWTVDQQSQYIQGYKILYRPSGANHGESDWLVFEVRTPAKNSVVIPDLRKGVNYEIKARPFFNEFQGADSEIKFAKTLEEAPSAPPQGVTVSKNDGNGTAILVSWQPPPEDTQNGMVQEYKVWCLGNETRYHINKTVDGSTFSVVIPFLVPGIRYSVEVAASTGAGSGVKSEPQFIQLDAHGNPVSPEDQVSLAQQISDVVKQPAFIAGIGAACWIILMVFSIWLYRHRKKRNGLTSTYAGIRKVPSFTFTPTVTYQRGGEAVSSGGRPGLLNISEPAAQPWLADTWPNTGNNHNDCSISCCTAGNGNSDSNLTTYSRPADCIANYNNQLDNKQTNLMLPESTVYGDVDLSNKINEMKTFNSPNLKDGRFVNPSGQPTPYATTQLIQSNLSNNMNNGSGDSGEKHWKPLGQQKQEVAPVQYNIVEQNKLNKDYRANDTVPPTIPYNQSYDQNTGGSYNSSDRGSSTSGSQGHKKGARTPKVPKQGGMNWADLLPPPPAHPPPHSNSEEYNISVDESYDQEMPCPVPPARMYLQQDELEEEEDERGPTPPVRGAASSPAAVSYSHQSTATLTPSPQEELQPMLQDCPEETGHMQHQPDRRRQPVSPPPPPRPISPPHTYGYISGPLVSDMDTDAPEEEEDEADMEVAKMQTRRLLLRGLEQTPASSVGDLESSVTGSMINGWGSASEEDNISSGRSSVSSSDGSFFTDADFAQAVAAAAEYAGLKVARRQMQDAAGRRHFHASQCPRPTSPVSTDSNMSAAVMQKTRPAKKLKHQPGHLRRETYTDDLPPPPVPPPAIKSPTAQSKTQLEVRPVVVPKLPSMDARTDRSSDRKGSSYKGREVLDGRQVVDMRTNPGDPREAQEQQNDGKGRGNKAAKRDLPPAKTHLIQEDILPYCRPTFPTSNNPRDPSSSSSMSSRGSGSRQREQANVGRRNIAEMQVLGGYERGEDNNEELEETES
Assay: flow cytometry, Geo MFI ROBO1-RSK/ROBO2-KSR HEK293 cells, 2.5 µg/ml
observed-property: Fold Selectivity for RSK/KSR (fold)
The reply should be a number in fold, with the unit left off.

QUERY: Report Fold Selectivity for RSK/KSR for CTIR2-16 (antibody, human IgG1, kappa, V domains shown, CDR-shuffled IgG) VH: EVQLVQSGAEVKKPGASVKVSCKASGYTFRGYAMHWVRQAPGQGLEWMGWIDPRTGLTKFPQKFQGRVTMTRDTSITTAYMDLSRLRSDDTAVYYCARESGDDAFDIWGQGTMVTVSS VL: DIVMTQSPSSLSASVGDRVTITCRASQKISSYLNWYQQKPGKAPKLLIYAASSLQYGVPSRFSGSGSGTDFTLTISSLQPEDFATYYCQQSVGLFFGGGTKVEIKR please.
RESULT: 66.5
